Molecular target: PXR (NR1I2) (Homo sapiens)
Sequence (O75469 whole entry): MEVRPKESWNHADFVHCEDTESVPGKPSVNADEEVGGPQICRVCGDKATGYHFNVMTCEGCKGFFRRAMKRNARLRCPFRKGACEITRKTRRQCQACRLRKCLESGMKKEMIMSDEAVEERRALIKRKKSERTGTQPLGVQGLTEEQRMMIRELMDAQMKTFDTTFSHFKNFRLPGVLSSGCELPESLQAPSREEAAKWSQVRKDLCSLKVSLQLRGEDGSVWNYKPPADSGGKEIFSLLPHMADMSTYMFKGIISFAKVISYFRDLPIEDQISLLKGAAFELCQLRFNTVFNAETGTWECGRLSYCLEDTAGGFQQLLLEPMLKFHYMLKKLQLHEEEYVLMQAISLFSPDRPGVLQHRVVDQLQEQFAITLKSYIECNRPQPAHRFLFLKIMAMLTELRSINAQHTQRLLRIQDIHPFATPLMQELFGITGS
Assay: in vitro
Settings: HEK293T cells expressing GAL4-fused human PXR
Description: Agonist activity at GAL4-fused human PXR expressed in HEK293T cells assessed as activation of basal transcriptional activity after 20 hrs by dual-glo luciferase reporter gene assay relative to apo-receptor
fold induction at 20 h overview

{"columns": ["Chem smiles", "fold induction at 20 h"],
 "data": [
  ["N#Cc1ccc(S(=O)(=O)N(CC(F)(F)F)c2ccc(C(O)(C(F)(F)F)C(F)(F)F)cc2)cc1", 27],
  ["CCN(c1ccc(C(O)(C(F)(F)F)C(F)(F)F)cc1)S(=O)(=O)c1ccccc1", 24],
  ["O=S(=O)(c1ccc(F)cc1)N(CC(F)(F)F)c1ccc(C(O)(C(F)(F)F)C(F)(F)F)cc1", 30]
]}

###

Target: UniProtKB P51449
Sequence (P51449 whole entry): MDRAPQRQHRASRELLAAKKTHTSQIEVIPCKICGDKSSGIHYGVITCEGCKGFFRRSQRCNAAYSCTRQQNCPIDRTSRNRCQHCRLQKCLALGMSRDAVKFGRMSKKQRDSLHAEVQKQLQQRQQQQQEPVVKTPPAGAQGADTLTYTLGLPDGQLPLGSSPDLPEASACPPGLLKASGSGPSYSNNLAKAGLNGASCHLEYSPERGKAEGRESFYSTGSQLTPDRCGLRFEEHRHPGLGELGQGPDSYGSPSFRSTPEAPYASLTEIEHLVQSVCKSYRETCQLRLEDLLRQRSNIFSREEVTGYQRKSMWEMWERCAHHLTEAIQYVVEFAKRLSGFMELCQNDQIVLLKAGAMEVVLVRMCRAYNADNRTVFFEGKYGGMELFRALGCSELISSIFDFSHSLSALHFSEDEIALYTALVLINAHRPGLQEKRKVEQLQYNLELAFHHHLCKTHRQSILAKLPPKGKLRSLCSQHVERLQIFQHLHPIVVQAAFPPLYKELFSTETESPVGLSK
Rule: EC50 below 1000 nM gives condition met. Equal to or above 1000 nM gives condition not met.

{"columns": ["Chem smiles", "Qualitative label"],
 "data": [
  ["O=S(=O)(c1ccccc1)N(Cc1ccccc1)c1ccc(C(O)(C(F)(F)F)C(F)(F)F)cc1", "condition not met"],
  ["CCN(c1cccc(C(O)(C(F)(F)F)C(F)(F)F)c1)S(=O)(=O)c1ccccc1", "condition met"],
  ["Cc1ccc(S(=O)(=O)N(CC(F)(F)F)c2ccc(C(O)(C(F)(F)F)C(F)(F)F)cc2)cc1", "condition met"],
  ["CS(=O)(=O)CCN(c1ccc(C(O)(C(F)(F)F)C(F)(F)F)cc1)S(=O)(=O)c1ccccc1", "condition not met"],
  ["COCCN(c1ccc(C(O)(C(F)(F)F)C(F)(F)F)cc1)S(=O)(=O)c1ccccc1", "condition not met"],
  ["CC(=O)NCCN(c1ccc(C(O)(C(F)(F)F)C(F)(F)F)cc1)S(=O)(=O)c1ccccc1", "condition not met"],
  ["O=S(=O)(c1ccccc1)N(CCC(F)(F)F)c1ccc(C(O)(C(F)(F)F)C(F)(F)F)cc1", "condition not met"],
  ["N#Cc1ccccc1S(=O)(=O)N(CC(F)(F)F)c1ccc(C(O)(C(F)(F)F)C(F)(F)F)cc1", "condition met"],
  ["O=C(Nc1ccc(C(O)(C(F)(F)F)C(F)(F)F)cc1)c1ccccc1", "condition not met"],
  ["O=S(=O)(c1ccc(F)cc1)N(CC(F)(F)F)c1ccc(C(O)(C(F)(F)F)C(F)(F)F)cc1", "condition met"]
]}
